- Experimental System: SV3CP (Southampton norovirus 3CL^pro) (Southampton virus (serotype 3))
- Construct: gene ORF1; mature 3C-like protease (NS6) cut from the ORF1 non-structural polyprotein; purified as in Hussey et al. 2011; mass 19,290 Da (intact); dimer in asymmetric unit, putative crystallographic tetramer
- Sequence (Q04544 1100-1280): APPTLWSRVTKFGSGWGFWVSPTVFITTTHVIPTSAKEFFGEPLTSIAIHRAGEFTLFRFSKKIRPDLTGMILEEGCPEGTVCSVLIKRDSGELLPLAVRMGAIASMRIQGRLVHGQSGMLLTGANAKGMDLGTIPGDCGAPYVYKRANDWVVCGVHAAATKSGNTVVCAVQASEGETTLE
- Protocol: chromogenic protease assay, […] nm
- Format: biochemical
- Condition Info: read-out: Ki
Readout Label: Ki (µM)
Give just the number in µM; leave the unit off.

## Task Look up Ki for this molecule: Cc1ccc(CNc2cccc(C(=O)O)c2)s1
## Result 370
